# target.system: T1, HLA-B*44:02 (human)
# T1 construct: also called peptide-receptive MHC molecules
# protocol.description: UV-exchange b2m ELISA; exchange-yield grade
Please respond with reported peptide exchange yield for every item in the list.

Request: // returns reported peptide exchange yield for input HEFGHVLGL
Response: 20 to 50%

Request: Please give the measured peptide exchange yield for this binder: KESIPRWYY
Response: 20 to 50%

Request: Recorded peptide exchange yield for TEVSRTEAI , please?
Response: 20 to 50%

Request: Given the binder AEDKRHYSV , what is its reported peptide exchange yield?
Response: 20 to 50%

Request: Requested field: peptide exchange yield. Item: GEIEIHLL
Response: 10 to 20%

Request: I have this binder here, IEHSTQAQDTL , and I need its recorded peptide exchange yield.
Response: 20 to 50%

Request: # input binder: SEDPSKLEA ; wanted: its peptide exchange yield
Response: 10 to 20%

Request: Need peptide exchange yield of LEKALQVF , thanks.
Response: 20 to 50%

Request: Item under review: REAGDEFELRY . Reported peptide exchange yield?
Response: 20 to 50%

Request: Look up peptide exchange yield: QEAARAAL
Response: 20 to 50%

Request: Field request: peptide exchange yield | item: SEDGLPEGIHL
Response: 20 to 50%

Request: Which value of peptide exchange yield has been reported for QEILTQVKQ in the records?
Response: 20 to 50%

Request: Record request: peptide exchange yield value, item LEAQQEAL
Response: 20 to 50%
